Numbers sourced from patent US9861616B2.

# Tested on: P. aeruginosa (PA)
# test-protocol: MIC by microdilution, 36 clinical and laboratory strains with known efflux phenotype
# Type: cell-based
# conditions: strain 434, efflux AB + CD + XY+, RPMI
Field: MIC. Provide a value for each of the compounds that follow.
Please state the figure in µg/mL; there is no need to write the unit.

input: // Input: "CC[C@H]1OC(=O)[C@H](C)C(=O)[C@H](C)[C@@H](O[C@@H]2O[C@H](C)C[C@H](N(C)C)[C@H]2O)[C@](C)(OC)C[C@@H](C)C(=O)[C@H](C)[C@H]2N(CCCCn3cnc(-c4cccnc4)c3)C(=O)O[C@]12C" . Output its MIC only.
output: 4

input: // Input: "CC[C@H]1OC(=O)[C@@](C)(F)C(=O)[C@H](C)[C@@H](O[C@@H]2O[C@H](C)C[C@H](N(C)C)[C@H]2O)[C@](C)(OC)C[C@@H](C)C(=O)[C@H](C)[C@H]2N(CCCCn3cc(-c4cccc(N)c4)nn3)C(=O)O[C@]12C" . Output its MIC only.
output: 8

input: // Input: "CC[C@H]1OC(=O)[C@H](C)[C@@H](O[C@H]2C[C@@](C)(OC)[C@@H](O)[C@H](C)O2)[C@H](C)[C@@H](O[C@@H]2O[C@H](C)C[C@H](N(C)C)[C@H]2O)[C@](C)(O)C[C@@H](C)CN(C)[C@H](C)[C@@H](O)[C@]1(C)O" . Output its MIC only.
output: 4

input: // Input: "CC[C@H]1OC(=O)[C@H](C)[C@@H](O[C@H]2C[C@@](C)(OC)[C@@H](O)[C@H](C)O2)[C@H](C)[C@@H](O[C@@H]2O[C@H](C)C[C@H](N(C)C)[C@H]2O)[C@](C)(OC)C[C@@H](C)C(=O)[C@H](C)[C@@H](O)[C@]1(C)O" . Output its MIC only.
output: 128

---

# System: P. aeruginosa (PA)
# test-protocol: MIC by microdilution, 36 clinical and laboratory strains with known efflux phenotype
# Assay type: cell-based
# conditions: strain 16, efflux AB + XY+, MHB
Field: MIC. Provide a value for each of the compounds that follow.
Please state the figure in µg/mL; there is no need to write the unit.

input: // Input: "CC[C@H]1OC(=O)[C@@](C)(F)C(=O)[C@H](C)[C@@H](O[C@@H]2O[C@H](C)C[C@H](N(C)C)[C@H]2O)[C@](C)(OC)C[C@@H](C)C(=O)[C@H](C)[C@H]2N(CCCCn3cc(-c4cccc(N)c4)nn3)C(=O)O[C@]12C" . Output its MIC only.
output: 32

input: // Input: "CC[C@H]1OC(=O)[C@H](C)[C@@H](O[C@H]2C[C@@](C)(OC)[C@@H](O)[C@H](C)O2)[C@H](C)[C@@H](O[C@@H]2O[C@H](C)C[C@H](N(C)C)[C@H]2O)[C@](C)(O)C[C@@H](C)CN(C)[C@H](C)[C@@H](O)[C@]1(C)O" . Output its MIC only.
output: 256

input: // Input: "CC[C@H]1OC(=O)[C@H](C)[C@@H](O[C@H]2C[C@@](C)(OC)[C@@H](O)[C@H](C)O2)[C@H](C)[C@@H](O[C@@H]2O[C@H](C)C[C@H](N(C)C)[C@H]2O)[C@](C)(OC)C[C@@H](C)C(=O)[C@H](C)[C@@H](O)[C@]1(C)O" . Output its MIC only.
output: 512

input: // Input: "CC[C@H]1OC(=O)[C@H](C)C(=O)[C@H](C)[C@@H](O[C@@H]2O[C@H](C)C[C@H](N(C)C)[C@H]2O)[C@](C)(OC)C[C@@H](C)C(=O)[C@H](C)[C@H]2N(CCCCn3cnc(-c4cccnc4)c3)C(=O)O[C@]12C" . Output its MIC only.
output: 128

input: // Input: "CC[C@H]1OC(=O)[C@H](C)[C@@H](O[C@H]2C[C@@](C)(OC)[C@@H](O)[C@H](C)O2)[C@H](C)[C@@H](O[C@@H]2O[C@H](C)C[C@H](N(C)C)[C@H]2O)[C@](C)(O)C[C@@H](C)C(=O)[C@H](C)[C@@H](O)[C@]1(C)O" . Output its MIC only.
output: 512

---

# Test system: P. aeruginosa (PA)
# test-protocol: MIC by microdilution, 36 clinical and laboratory strains with known efflux phenotype
# Format: cell-based
# conditions: strain 394, efflux XY−, RPMI
measure: MIC (µg/mL)
Please state the figure in µg/mL; there is no need to write the unit.

input: // Input: CC[C@H]1OC(=O)[C@H](C)[C@@H](O[C@H]2C[C@@](C)(OC)[C@@H](O)[C@H](C)O2)[C@H](C)[C@@H](O[C@@H]2O[C@H](C)C[C@H](N(C)C)[C@H]2O)[C@](C)(OC)C[C@@H](C)C(=O)[C@H](C)[C@@H](O)[C@]1(C)O [CLR, clarithromycin] . Output its MIC only.
output: 32

input: // Input: CC[C@H]1OC(=O)[C@H](C)C(=O)[C@H](C)[C@@H](O[C@@H]2O[C@H](C)C[C@H](N(C)C)[C@H]2O)[C@](C)(OC)C[C@@H](C)C(=O)[C@H](C)[C@H]2N(CCCCn3cnc(-c4cccnc4)c3)C(=O)O[C@]12C [TEL, telithromycin] . Output its MIC only.
output: 1

input: // Input: CC[C@H]1OC(=O)[C@H](C)[C@@H](O[C@H]2C[C@@](C)(OC)[C@@H](O)[C@H](C)O2)[C@H](C)[C@@H](O[C@@H]2O[C@H](C)C[C@H](N(C)C)[C@H]2O)[C@](C)(O)C[C@@H](C)C(=O)[C@H](C)[C@@H](O)[C@]1(C)O [ERY, erythromycin] . Output its MIC only.
output: 32

input: // Input: CC[C@H]1OC(=O)[C@@](C)(F)C(=O)[C@H](C)[C@@H](O[C@@H]2O[C@H](C)C[C@H](N(C)C)[C@H]2O)[C@](C)(OC)C[C@@H](C)C(=O)[C@H](C)[C@H]2N(CCCCn3cc(-c4cccc(N)c4)nn3)C(=O)O[C@]12C [CEM-101, solithromycin] . Output its MIC only.
output: 4

input: // Input: CC[C@H]1OC(=O)[C@H](C)[C@@H](O[C@H]2C[C@@](C)(OC)[C@@H](O)[C@H](C)O2)[C@H](C)[C@@H](O[C@@H]2O[C@H](C)C[C@H](N(C)C)[C@H]2O)[C@](C)(O)C[C@@H](C)CN(C)[C@H](C)[C@@H](O)[C@]1(C)O [AZM, azithromycin] . Output its MIC only.
output: 4

---

# Test system: P. aeruginosa (PA)
# test-protocol: MIC by microdilution, 36 clinical and laboratory strains with known efflux phenotype
# Type: cell-based
# conditions: strain 403, efflux AB − CD − EF − XY−, RPMI
Field: MIC. Provide a value for each of the compounds that follow.
Please state the figure in µg/mL; there is no need to write the unit.

input: Give reported MIC for "CC[C@H]1OC(=O)[C@H](C)[C@@H](O[C@H]2C[C@@](C)(OC)[C@@H](O)[C@H](C)O2)[C@H](C)[C@@H](O[C@@H]2O[C@H](C)C[C@H](N(C)C)[C@H]2O)[C@](C)(OC)C[C@@H](C)C(=O)[C@H](C)[C@@H](O)[C@]1(C)O" (P. aeruginosa (PA))
output: 4

input: Give reported MIC for "CC[C@H]1OC(=O)[C@H](C)C(=O)[C@H](C)[C@@H](O[C@@H]2O[C@H](C)C[C@H](N(C)C)[C@H]2O)[C@](C)(OC)C[C@@H](C)C(=O)[C@H](C)[C@H]2N(CCCCn3cnc(-c4cccnc4)c3)C(=O)O[C@]12C" (P. aeruginosa (PA))
output: 0.5

input: Give reported MIC for "CC[C@H]1OC(=O)[C@@](C)(F)C(=O)[C@H](C)[C@@H](O[C@@H]2O[C@H](C)C[C@H](N(C)C)[C@H]2O)[C@](C)(OC)C[C@@H](C)C(=O)[C@H](C)[C@H]2N(CCCCn3cc(-c4cccc(N)c4)nn3)C(=O)O[C@]12C" (P. aeruginosa (PA))
output: 1

input: Give reported MIC for "CC[C@H]1OC(=O)[C@H](C)[C@@H](O[C@H]2C[C@@](C)(OC)[C@@H](O)[C@H](C)O2)[C@H](C)[C@@H](O[C@@H]2O[C@H](C)C[C@H](N(C)C)[C@H]2O)[C@](C)(O)C[C@@H](C)CN(C)[C@H](C)[C@@H](O)[C@]1(C)O" (P. aeruginosa (PA))
output: 2

input: Give reported MIC for "CC[C@H]1OC(=O)[C@H](C)[C@@H](O[C@H]2C[C@@](C)(OC)[C@@H](O)[C@H](C)O2)[C@H](C)[C@@H](O[C@@H]2O[C@H](C)C[C@H](N(C)C)[C@H]2O)[C@](C)(O)C[C@@H](C)C(=O)[C@H](C)[C@@H](O)[C@]1(C)O" (P. aeruginosa (PA))
output: 4
